Values were extracted from patent US6437138B1.

MEASURED_METRIC: melting point

Observe how each entry below is paired with its result.
>  <COMPOUND>
CN1CCC[C@H]1COc1cncc(C=CC=CC(C)(C)C)c1.Cl.Cl

>  <melting point>
148 to 150 °C

$$$$
>  <COMPOUND>
Cc1ccc(-c2cncc(OC[C@@H]3CCCN3C)c2)cc1.Cl.Cl

>  <melting point>
204 to 206 °C

$$$$
>  <COMPOUND>
CCCCCCC#Cc1cc(OC[C@@H]2CCCN2)cnc1Cl.Cl.Cl

>  <melting point>
133 to 135 °C

$$$$

Here's the next entry for you.
Name the recorded melting point of the compound listed here: `C=Cc1cncc(OC[C@@H]2CCCN2C)c1.Cl.Cl` 152 to 156 °C
